# credit: patent US4234724A

- Tested on: Pr. vulgaris 2
measurement-label: MIC (µg/mL)
Give bare numbers, in µg/mL.

Worked set:
CCON=C(C(=O)NC1C(=O)N2C(C(=O)O)=CCOC12)c1csc(N)n1 (centres unmarked) [(2)] :: 0.05
CON=C(C(=O)NC1C(=O)N2C(C(=O)O)=CCOC12)c1nsc(N)n1 (centres unmarked) [(4)] :: 0.1
CON=C(C(=O)NC1C(=O)N2C(C(=O)O)=CCOC12)c1csc(N)n1 (centres unmarked) [(1)] :: 0.2
CC(C)ON=C(C(=O)NC1C(=O)N2C(C(=O)O)=CCOC12)c1csc(N)n1 (centres unmarked) [(3)] :: 0.1

Now examine the next entry.
Given the entry CON=C(C(=O)NC1C(=O)N2C(C(=O)O)=CCOC12)c1nccc(N)n1 (centres unmarked) [(5)] , what MIC was observed with Pr. vulgaris 2?
0.1
